# Tested on: cortical neurones
# test_description: Excitotoxicity: glutamate toxicity in cultured cortical neurones (MTT)
# Type: cell-based, rat
# settings: Rattus norvegicus, Cortical neurone; Table 9; 100 μM glutamate; read-out: Glut Tox IC50
Counter-ions that a name gives are not always drawn.
assay_metric: pIC50
Just so you know, pIC50 here is -log10 of the concentration in molar units; reply with that number alone.

Please review the entries below; each comes with its answer.
compound	system	assay_metric	quantitative_readout
CC[C@H]1CC(C)(C)C[C@@](C)(N)C1 [MRZ 2/683, hydrochloride hydrate]	cortical neurones	pIC50	5.29
CCC[C@]1(C)C[C@@H](C)C[C@@](C)(N)C1 (relative stereo)	cortical neurones	pIC50	4.51
CCC[C@@H]1CC(C)(C)C[C@](C)(N)C1 (relative stereo)	cortical neurones	pIC50	4.72
CNC1(C)CC(C)(C)CC(C)(C)C1.Cl [Mrz 2/640, hydrochloride]	cortical neurones	pIC50	5.08
CCCC1(C)CC(C)(C)CC(C)(N)C1 (stereo not shown)	cortical neurones	pIC50	5.90
CC1(C)CC(C)(C)CC(C)(CCN)C1	cortical neurones	pIC50	6.28
CC[C@]1(C)C[C@@H](C)C[C@@](C)(N)C1 (relative stereo)	cortical neurones	pIC50	5.57
CCC1(C)CC(C)(C)CC(C)(N)C1 (stereo not shown)	cortical neurones	pIC50	5.64

Please look up its pIC50: CCC[C@H]1CCC[C@@](C)(N)C1 (relative stereo)
4.56

---

# test_description: Rotarod test (motor coordination, ataxia) in mice, therapeutic index versus MES
# Assay type: in vivo
# settings: mouse, in vivo, ip; ED50 for rotarod failure divided by ED50 for MES; read-out: TI Rot.
Counter-ions that a name gives are not always drawn.
assay_metric: selectivity ratio at 0.5 h
Form field (numeric): enter value without unit.

Please review the entries below; each comes with its answer.
compound	selectivity ratio at 0.5 h
CC(C)(N)CC1CC(C)(C)CC(C)(C)C1	0.6
C[C@@H]1C[C@H](C)C[C@@](C)(N)C1 [MRZ 2/680, hydrochloride]	1.1

// below: selectivity ratio at 0.5 h requested for another compound
Please look up its selectivity ratio at 0.5 h: CCCC1(C)CC(C)(C)CC(C)(N)C1 (stereo not drawn)
1.6

---

# system: NMDA receptor
# test_description: [3H]-(+)-MK-801 binding to rat cortical membranes
# settings: read-out: [3H] MK-801 IC50; Table 7; footnote calls the values Ki
# Experimental: Male Sprague-Dawley rats (200-250 g) were decapitated and their brains were removed rapidly. The cortex was dissected and homogenized in 20 volumes of ice-cold 0.32 M sucrose using a glass-Teflon homogenizer. The homogenate was centrifuged at 1000 ×g for 10 minutes. The pellet was discarded and the supernatant centrifuged at 20,000 ×g for 20 minutes. […] The amount of protein in the final membrane preparation was determined according to the method of Lowry with some modifications. […]
Quick reference: pIC50 of the listed items.
Just so you know, pIC50 here is -log10 of the concentration in molar units; reply with that number alone.

compound	pIC50
CCCC1(C)CC(C)(C)CC(C)(N)C1 (stereo not drawn)	4.87
CCC1(C)CCCC(C)(N)C1 (stereo not drawn)	4.49
CC1(C)CC(CCN)CC(C)(C)C1	5.42
CCCC1(C)CCCC(C)(N)C1 (stereo not drawn)	4.29
CC1(C)CC(CN)CC(C)(C)C1.Cl [Mrz 2/580, hydrochloride]	4.80

Please look up its pIC50: CC[C@H]1CC(C)(C)C[C@@](C)(N)C1 (relative stereo)
5.70
